B1: DCAF4 (parent)
chain: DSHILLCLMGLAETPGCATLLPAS

Variants of: B1
test-protocol: protein stability index of a GFP-peptide fusion (GPS, HEK-293T) (PSI 1-6); higher = more stable;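 also: lentivirally expressed fusions sorted by FACS into six bins by GFP to DsRed ratio, PSI derived from sequencing read proportions per bin multiplied by bin number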
details: c terminus: a fixed tail appended
quantity-name: protein stability index
Write the value as a bare number.

Take a look at these entries with their results.
{"biosequence": "DSHILLCLMGLAKTPGCATLLPAS", "recorded-number": 2.59}
{"biosequence": "DSHIGLCLMGLAETPGCATLLPAS", "recorded-number": 2.01}

Form field protein stability index, entry DSHILLCLMGLAETPGCATLLPRS : 3.3

Form field protein stability index, entry DSHILLCLMGLATTPGCATLLPAS : 2.89

Form field protein stability index, entry RSHILLCLMGLAETPGCATLLPAS : 4.01
